All values here come from PubChem BioAssay AID2060499.

System: 777334-354-R2-J4-PDC tumor spheroids with HUVEC/MSC, viability
methodNotes: Anticancer human tumor 777334-354-R2-J4-PDC patient-derived pancreatic adenocarcinoma cell line growth inhibition [GQUAD]
settings: second compound 10 µM; first compound 0.0316 µM; stronger effect = lower value
// classify: if (viability, T/C < 60%) t else f

Record excerpt, results attached:
{"molecule": "COc1ccc([C@@H](O)c2cc(-c3ncnc4cc(N5CCOCC5)ccc34)c(F)cc2Cl)nn1 + Cc1[nH]c2ccc(F)cc2c1-c1nc2c3cccnc3c3ncccc3c2[nH]1", "tgt": "777334-354-R2-J4-PDC tumor spheroids with HUVEC/MSC, viability", "groupLabel": "t"}
{"molecule": "COc1cc(C2c3cc4c(cc3C(OC3OC5COC(C)OC5C(O)C3O)C3COC(=O)C23)OCO4)cc(OC)c1O (stereo not drawn) + Cc1[nH]c2ccc(F)cc2c1-c1nc2c3cccnc3c3ncccc3c2[nH]1", "tgt": "777334-354-R2-J4-PDC tumor spheroids with HUVEC/MSC, viability", "groupLabel": "t"}
{"molecule": "CC1COCCN1c1cc(C2(S(C)(=N)=O)CC2)nc(-c2ccnc3[nH]ccc23)n1 (stereo not drawn) + Cc1[nH]c2ccc(F)cc2c1-c1nc2c3cccnc3c3ncccc3c2[nH]1", "tgt": "777334-354-R2-J4-PDC tumor spheroids with HUVEC/MSC, viability", "groupLabel": "t"}

Below: the item to evaluate.
*Q* In the record for COc1ncnc(C2CC2)c1-c1ncc2cnn(Cc3ccc(-c4nc(C(F)(F)F)cn4C(C)C)cc3)c2n1 + Cc1[nH]c2ccc(F)cc2c1-c1nc2c3cccnc3c3ncccc3c2[nH]1 , is viability, T/C less than 60%?
*A* t

###

System: 777334-354-R2-J4-PDC tumor spheroids with HUVEC/MSC, viability
methodNotes: Anticancer human tumor 777334-354-R2-J4-PDC cell line growth inhibition [GQUAD];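 further: spheroids exposed to compounds for 7 days before readout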
settings: second compound 0.0316 µM; first compound 0.1 µM; stronger effect = lower value
recordedEndpoint: viability, T/C (%)
Respond numerically; units are % and should not be typed.

{"compound": "C#Cc1c(F)ccc2cc(O)cc(-c3ncc4c(N5CC6CCC(C5)N6)nc(OCC56CCCN5CC(F)C6)nc4c3F)c12 (centres undefined) + Cc1cnc(CNC(=O)c2c(=O)c3ccc(N4CCCN(C)CC4)nc3n3c2sc2ccccc23)cn1", "unitTag": "%", "viability, T/C": 38.7}

*Q* // viability, T/C lookup, key: CC(=O)O[C@H]1C(=O)[C@@]2(C)[C@H]([C@H](OC(=O)c3ccccc3)[C@]3(O)C[C@H](OC(=O)[C@H](O)[C@@H](NC(=O)c4ccccc4)c4ccccc4)C(C)=C1C3(C)C)[C@]1(OC(C)=O)CO[C@@H]1C[C@@H]2O + Cc1[nH]c2ccc(F)cc2c1-c1nc2c3cccnc3c3ncccc3c2[nH]1
*A* 66

*Q* Please give the measured viability, T/C for this compound: COc1cc(C2c3cc4c(cc3C(OC3OC5COC(C)OC5C(O)C3O)C3COC(=O)C23)OCO4)cc(OC)c1O (centres undefined) + Cc1cnc(CNC(=O)c2c(=O)c3ccc(N4CCCN(C)CC4)nc3n3c2sc2ccccc23)cn1
*A* 90.6

*Q* // lookup viability, T/C for C#Cc1c(F)ccc2cc(O)cc(-c3ncc4c(N5CC6CCC(C5)N6)nc(OCC56CCCN5CC(F)C6)nc4c3F)c12 (centres undefined) + Cc1[nH]c2ccc(F)cc2c1-c1nc2c3cccnc3c3ncccc3c2[nH]1
*A* 52.6
